Form field: viability at 48 h, 100 µM (one value per entry).
test: Cytotoxicity against Homo sapiens (human) FL cells assessed as cell viability at 10^-4 M after 48 hr by trypan blue exclusion assay relative to control; type: cell-based; settings: read-out: Activity

| CHEMICAL SMILES | MEASUREMENT UNIT | viability at 48 h, 100 µM |
| --- | --- | --- |
| CCOC(=O)N1c2ccccc2N(C(=O)OCC)C1CC(=O)Cc1ccccc1 | % | 10.4 |
| CCOC(=O)N1c2ccccc2N(C(=O)OCC)C1CC(=O)c1ccc(O)cc1 | % | 11.7 |
| CCOC(=O)N1c2cc(C)c(C)cc2N(C(=O)OCC)C1CC(=O)/C=C/c1ccccc1 | % | 67.5 |
| CCOC(=O)N1c2ccccc2N(C(=O)OCC)C1CC(=O)/C=C/c1ccccc1 | % | 77.9 |
| CCOC(=O)N1c2cc(C)c(C)cc2N(C(=O)OCC)C1CC(=O)c1ccccc1 | % | 46.8 |

* * *

Form field: viability at 100 µM (one value per entry).
tested on: A2058; assay: Cytotoxicity against Homo sapiens (human) A2058 cells assessed as cell viability at 10^-4 M after 96 hr by trypan blue exclusion assay relative to control; format: functional; details: A2058, 96 h, read-out: Activity

| CHEMICAL SMILES | SYSTEM NAME | viability at 100 µM, % |
| --- | --- | --- |
| CCOC(=O)N1c2cc(C)c(C)cc2N(C(=O)OCC)C1CC(=O)c1ccc(OC)cc1 | A2058 | 33.7 |
| CCOC(=O)N1c2cc(C)c(C)cc2N(C(=O)OCC)C1CC(=O)c1ccccc1 | A2058 | 31.6 |
| CCOC(=O)N1c2cc(C)c(C)cc2N(C(=O)OCC)C1CC(=O)/C=C/c1ccccc1 | A2058 | 75.5 |
| CCOC(=O)N1c2ccccc2N(C(=O)OCC)C1CC(=O)c1ccccc1 | A2058 | 65.3 |
| CCOC(=O)N1c2cc(C)c(C)cc2N(C(=O)OCC)C1CC(C)=O | A2058 | 70.4 |
| CCOC(=O)N1c2ccccc2N(C(=O)OCC)C1CC(=O)Cc1ccccc1 | A2058 | 6.12 |
| CCOC(=O)N1c2ccccc2N(C(=O)OCC)C1CC(C)=O | A2058 | 0 |
| CCOC(=O)N1c2ccccc2N(C(=O)OCC)C1CC(=O)/C=C/c1ccccc1 | A2058 | 7.14 |
| CCOC(=O)N1c2ccccc2N(C(=O)OCC)C1CC(=O)c1ccc(O)cc1 | A2058 | 6.12 |

* * *

assay: Cytotoxicity against Homo sapiens (human) FL cells assessed as cell viability at 10^-4 M after 24 hr by trypan blue exclusion assay relative to control; assay type: cell-based; details: read-out: Activity

| CHEMICAL SMILES | viability at 24 h, 100 µM (%) |
| --- | --- |
| CCOC(=O)N1c2ccccc2N(C(=O)OCC)C1CC(=O)c1ccc(O)cc1 | 29.7 |
| CCOC(=O)N1c2cc(C)c(C)cc2N(C(=O)OCC)C1CC(C)=O | 111 |
| CCOC(=O)N1c2ccccc2N(C(=O)OCC)C1CC(C)=O | 0 |
| CCOC(=O)N1c2ccccc2N(C(=O)OCC)C1CC(=O)c1ccccc1 | 75.7 |
